assay: yeast NALP1 reporter signal suppression – S. cerevisiae, luminescence, single concentration, NALP1 inhibitor project, confirmation (AID 488841);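 also: plate controls were DMSO in galactose medium for no effect and cells in plain SD medium for full effect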; conditions: S. cerevisiae NALP1/ASC/Caspase-1 reporter, beta-gal luminescence; at 10 µM; active compounds read high
Out of some 1,400 compounds screened, about 380 (27%) were called active. The list shows a part of the results.
assay metric: inhibition (%)

compound: Fc1ccccc1-c1ccc(/C=N/Nc2nc3ccccc3[nH]2)o1
assay metric: inhibition
quantitative result: 60.4
--
compound: COc1ccc(N2C(=O)C(Cl)=C(Nc3c(C)n(C)n(-c4ccccc4)c3=O)C2=O)cc1
assay metric: inhibition
quantitative result: 36.8
--
compound: Cn1c2c(c(=O)n(C)c1=O)C(NC(=O)C(C)(C)C)(C(F)(F)F)C(=O)N2 (stereo not given)
assay metric: inhibition
quantitative result: 24.3
--
compound: CN(C)CCN(Cc1ccccc1)c1nccc(N(C)C)c1C#N
assay metric: inhibition
quantitative result: 25.1
--
compound: C#C[C@]1(O)CC[C@H]2[C@@H]3CCC4=C(CCC(=O)C4)[C@H]3CC[C@@]21C
assay metric: inhibition
quantitative result: 59.2
--
compound: CC1(C)Cc2c(c(N3CCOCC3)nc3sc4c(NCCN5CCOCC5)nnnc4c23)CS1
assay metric: inhibition
quantitative result: 27.2
--
compound: CCN(CC)CCN1C(=O)c2ccccc2NC1c1ccc(N(C)C)cc1 (stereo not given)
assay metric: inhibition
quantitative result: 25.7
--
compound: CCc1cccc2c(C(=O)COC(=O)c3ccccc3)c[nH]c12
assay metric: inhibition
quantitative result: 40
--
compound: C=CCn1c(CNC(=O)c2cccs2)nnc1SCC(=O)Nc1ccc(C(=O)O)cc1
assay metric: inhibition
quantitative result: 24.2
--
compound: C#C[C@]1(O)CC[C@H]2[C@@H]3CCc4cc(O)ccc4[C@H]3CC[C@@]21C
assay metric: inhibition
quantitative result: 65.4

====

test: yeast NALP1 reporter signal suppression – S. cerevisiae, luminescence, single concentration, NALP1 inhibitor project, confirmation (AID 488841); settings: S. cerevisiae NALP1/ASC/Caspase-1 reporter, beta-gal luminescence; at 10 µM
In all, about 1,400 compounds went through this assay and about 380 (27%) were called active.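 Rule for the calls: active = mean inhibition above 50% across duplicate retests at 10 µM; inactive = the rest.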 This is one part of the list.
Labels: TRUE (active), FALSE (inactive)

compound: Cc1cc(N/N=C/c2ccccc2)nc(NCc2ccccc2)n1
label class: TRUE
--
compound: O=S(=O)(Cc1cc(Sc2ccccc2)nc(-c2ccccc2)n1)c1ccccc1
label class: FALSE
--
compound: CCOc1ccc2nc(SC3CC(=O)N(c4cccc(OC)c4)C3=O)sc2c1 (configuration not stated)
label class: FALSE
--
compound: COc1ccc(-c2cc(-c3cc(OC)ccc3O)[nH]n2)cc1
label class: FALSE
--
compound: Cc1cc(C(C)(C)C)cc(S(=O)(=O)Nc2ccc(O)c(C(=O)O)c2)c1C
label class: FALSE
--
compound: Cc1cccc(NC2=C(Cl)C(=O)OC2NC(=O)c2ccccc2)c1 (configuration not stated)
label class: FALSE
--
compound: Cc1ccc(S(=O)(=O)N(C)C)cc1NC(=O)Nc1ccccc1F
label class: FALSE
--
compound: CCc1ccc(OCCCC(=O)Nc2cccc(C(=O)O)c2)cc1
label class: FALSE
--
compound: Cc1cccc2sc(N(CCCN(C)C)C(=O)c3sc4ccccc4c3Cl)nc12
label class: FALSE
--
compound: CN(C)CCCN(C(=O)CCS(=O)(=O)c1ccccc1)c1nc2cc3c(cc2s1)OCO3
label class: TRUE
--
compound: Cc1ccc2sc(N(CCCN(C)C)C(=O)CCS(=O)(=O)c3ccccc3)nc2c1C
label class: TRUE
--
compound: CC(C)Cn1c(CN(Cc2ccccc2)Cc2ccccc2)nc2c1c(=O)n(C)c(=O)n2C
label class: FALSE
--
compound: CN(C)C(CNC(=O)CCCOc1ccccc1)c1ccco1 (configuration not stated)
label class: FALSE
--
compound: O=C(NNC(=O)c1ccc(-c2ccccc2)cc1)Nc1ccc(F)cc1F
label class: FALSE
--
compound: Cc1cc(N/N=C/c2cccc(Cl)c2)nc(NCc2ccccc2)n1
label class: FALSE
--
compound: O=C(Cc1coc2cc3c(cc12)CCC3)NCC1(N2CCCCC2)CCCCC1
label class: FALSE
--
compound: Cc1cccc2sc(N(CCCN(C)C)C(=O)CCS(=O)(=O)c3ccccc3)nc12
label class: TRUE
--
compound: O=CC1=C(c2ccccc2)Oc2ccccc2O1
label class: TRUE
--
compound: CN(C)CCCN(C(=O)CCOc1ccccc1)c1nc2c(F)cccc2s1
label class: TRUE
--
compound: c1csc(CNc2nc3ccccc3n2CCN2CCOCC2)c1
label class: FALSE
--
compound: COc1ccc(S(=O)(=O)N2CCOC2CNC(=O)C(=O)NCCCN2CCOCC2)cc1C (configuration not stated)
label class: FALSE
--
compound: COc1cccc(N2C(=O)C(O)=C(C(C)=O)C2c2ccc(OC)c(OC)c2)c1 (configuration not stated)
label class: FALSE

====

experiment: yeast NALP1 reporter signal suppression – S. cerevisiae, luminescence, single concentration, NALP1 inhibitor project, confirmation (AID 488841);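 also: plate controls were DMSO in galactose medium for no effect and cells in plain SD medium for full effect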; conditions: S. cerevisiae NALP1/ASC/Caspase-1 reporter, beta-gal luminescence; at 10 µM; active compounds read high
Out of some 1,400 compounds screened, about 380 (27%) were called active. The list shows a part of the results.

compound: Oc1oc(-c2ccccc2)nc1C=Nc1cccc2ccccc12
inhibition: 40.1% (inactive)

compound: Cc1ccc(/C=N/NC(=O)c2ccc3nc[nH]c3c2)o1
inhibition: 31.1% (inactive)

compound: C=CCSc1nsc(NC(=O)Nc2ccc(F)cc2)n1
inhibition: 97.7% (active)

compound: CC1(C)CC(=O)C2=C(C1)OC(N)=C([N+](=O)[O-])C2c1cccs1 (stereo unspecified)
inhibition: 42.5% (inactive)

compound: Cn1c(=O)n(CCCOc2ccc(Cl)cc2)c2ccccc21
inhibition: 45.5% (inactive)

compound: Cc1cc2ccccc2n1CCNCc1c(C(=O)N2CCOCC2)nc2ccccn12
inhibition: 28.2% (inactive)

compound: O=C(Cc1ccc(Cl)cc1)Oc1cccc2cccnc12
inhibition: 27.7% (inactive)

compound: COC(=O)N/N=C/c1ccc(OC(=O)c2ccco2)c(OC)c1
inhibition: 22.6% (inactive)

compound: CC(NC(=O)/C(C#N)=C/c1ccc(Cl)c([N+](=O)[O-])c1)c1ccccc1 (stereo unspecified)
inhibition: 51.1% (active)

compound: O=C(COC(=O)CCSc1ccccc1)NCc1ccccc1Cl
inhibition: 22.2% (inactive)

compound: COc1ccccc1OCC(=O)NCCSCc1ccc(Cl)cc1
inhibition: 56.6% (active)

====

assay: yeast NALP1 reporter signal suppression – S. cerevisiae, luminescence, single concentration, NALP1 inhibitor project, confirmation (AID 488841);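 also: plate controls were DMSO in galactose medium for no effect and cells in plain SD medium for full effect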; conditions: S. cerevisiae NALP1/ASC/Caspase-1 reporter, beta-gal luminescence; at 10 µM; active compounds read high
The campaign covered roughly 1,400 compounds. About 380 (27%) were called active. The list shows a part of the results.
assay metric: inhibition (%)

compound: O=C(/C=N/O)Nc1cccnc1
assay metric: inhibition
quantitative result: 19.7
--
compound: CCC(C)NC(=O)c1cc2cc3ccc(OC)cc3nc2s1 (configuration not stated)
assay metric: inhibition
quantitative result: 54.9
--
compound: CCCCNC(=O)COC(=O)c1ccc(Cl)c(S(N)(=O)=O)c1
assay metric: inhibition
quantitative result: 25.9
--
compound: COc1cc2c(cc1NC(=S)Nc1ccccc1C)oc1ccccc12
assay metric: inhibition
quantitative result: 26.9
--
compound: COc1ccc(CCNCc2ccc(OCc3ccccc3)cc2)cc1
assay metric: inhibition
quantitative result: 78.5
--
compound: COc1ccc(CNCCSc2nnnn2C)cc1OC
assay metric: inhibition
quantitative result: 49
--
compound: COc1ccc(OC)c(NC(=O)c2sc3nc(Cc4ccccc4)cc(C(F)(F)F)c3c2N)c1
assay metric: inhibition
quantitative result: 23.5
--
compound: O=[N+]([O-])c1cc(S(=O)(=O)N2CCCCCC2)ccc1F
assay metric: inhibition
quantitative result: 74.7
--
compound: COc1ccc2cc(/C=N/O)c(Cl)nc2c1
assay metric: inhibition
quantitative result: 46.1
--
compound: O=C1CC(c2ccccc2Cl)CC(O)=C1C=Nc1ccccc1 (configuration not stated)
assay metric: inhibition
quantitative result: 52.8
--
compound: CCCOc1ccc(OCCSc2ncccn2)cc1
assay metric: inhibition
quantitative result: 39.4
--
compound: COc1ccc(OCCCC(=O)NCC(C)C)cc1
assay metric: inhibition
quantitative result: 32.4

====

assay: yeast NALP1 reporter signal suppression – S. cerevisiae, luminescence, single concentration, NALP1 inhibitor project, confirmation (AID 488841);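 also: plate controls were DMSO in galactose medium for no effect and cells in plain SD medium for full effect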; settings: S. cerevisiae NALP1/ASC/Caspase-1 reporter, beta-gal luminescence; at 10 µM; active compounds read high
The campaign covered roughly 1,400 compounds. About 380 (27%) were called active. Some of the results follow.

smiles structure: CCc1cccc2c(C(=O)CSc3nncn3-c3ccc(OC)cc3)c[nH]c12
inhibition, %: 25.8

smiles structure: CCc1cccc2c(C(=O)COC(=O)c3ccc([N+](=O)[O-])s3)c[nH]c12
inhibition, %: 91.5

smiles structure: COc1cccc(/C=N/NC(=O)CCc2c(C)n[nH]c2C)c1
inhibition, %: 25.8

smiles structure: COc1ccc(NCc2ccc([N+](=O)[O-])s2)cc1
inhibition, %: 14.8

smiles structure: O=C(CN1CCCCC1)Nc1cccc(Oc2ccccc2)c1
inhibition, %: 25.9

smiles structure: Cc1nc(-c2ccccc2)cn2c1nc1ccccc12
inhibition, %: 49
